The measurements presented in this section are drawn from paper PMC7205207.

Target: T1, human PDGF-BB (platelet derived growth factor B homodimer) (human, UniProt P01127)
T1 construct: Platelet derived growth factor B, human, homodimer, bought from PeproTech; the printed catalogue number may stand for 100-14B; source: bought: PeproTech, Catalog 100-148
T1 sequence (P01127 82-190): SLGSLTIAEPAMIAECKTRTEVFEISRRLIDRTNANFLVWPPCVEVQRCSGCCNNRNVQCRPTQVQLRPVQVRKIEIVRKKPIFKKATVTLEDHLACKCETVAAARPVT
Experiment: SPR; Biacore T200, off-rate screen; antibody captured (~70 to 100 RU) by anti-human IgG amine-coupled to a CM5 chip; human PDGF-BB injected at a single 2.5 nM for 170 s, dissociation 300 s; HBS-EP+ N (10 mM HEPES, 500 mM NaCl, 3 mM EDTA, 0.05% Tween20, pH 7.4); 25 C
Conditions: both partners purified
# koff values compiled below
measure_name: koff

[[record]]
binder = "R2-016 (antibody, V domains shown, as the VH of m20 (R2-001_HC) with D101N; as the VL of m20 (R2-001_LC); only the variable regions are written; source: HEK293, transient, purified from conditioned medium (protein A, TMAE, HIC)) VH: EVQLLQSGGGLVKPGGSLRLSCAASGFTFSSYAMSWVRQAPGKGLEWVSYISDDGSLKYYADSVKGRFTISRDNSKNTLYLQMNSLRAEDTAVYYCARHPYWYGGQLNLWGQGTLVTVSS VL: SYVLTQPPSVSVAPGKTARITCSGDSLGSYFVHWYQQKPGQSPVLVIYDDSKRPSGIPERFSGSNSGNTATLTISGTQAMDEADYYCSAFTHNSDVFGGGTKLTVL"
result = "0.000266 s⁻¹"

[[record]]
binder = "R1-008 (antibody, V domains shown, VH of AB-001 (AB-001_HC); Kabat position; only the variable regions are written; source: HEK293, transient, purified from conditioned medium (protein A, TMAE, HIC)) VH: EVQLLESGGGLVQPGGSLRLSCAASGFTFSSYAMSWVRQAPGKGLEWVSYISDDGSLKYYADSVKGRFTISRDNSKNTLYLQMNSLRAEDTAVYYCAKHPYWYGGQLDLWGQGTLVTVSS VL: SYVLTQPPSVSVSPGQTASITCSGDSLGSYFVHWYQQKPGQSPVLVIYDDSNRPSGIPERFSGSNSGNTATLTISGTQAMDEADYYCSAFTHNSDVFGGGTKLTVL"
result = "0.000533 s⁻¹"

[[record]]
binder = "R1-013 (antibody, V domains shown, only the variable regions are written; source: HEK293, transient, purified from conditioned medium (protein A, TMAE, HIC)) VH: EVQLLQSGGGLVQPGGSLRLSCAASGFTFSSYAMSWVRQAPGKGLEWVSYISDDGSLKYYADSVKGRFTISRDNSKNTLYLQMNSLRAEDTAVYYCARHPYWYGGQLDLWGQGTLVTVSS VL: SYELTQPPSVSVSPGQRASITCSGDSLGSYFVHWYQQKPGQSPVLVIYDDSNRPSGIPERFSGSNSGNTATLTISGTQAMDEADYYCSAFTHNSDVFGGGTKLTVL"
result = "0.000297 s⁻¹"

